Reference source: the supplement of paper PMC11628255

# Tested on: firefly luciferase (FLuc)
# protocol.text: normalised percent inhibition of luminescence (vs positive and negative controls); higher = stronger inhibition
# setup.conditions: metal salt concentration 0.0005 mM; 100 mM HEPES buffer
Would you mind telling me the reported normalised percent inhibition of each entry?

Examples from the recorded data:
* O=[N+]([O-])[O-].O=[N+]([O-])[O-].[Pb+2] [lead(II) nitrate] | -15.9%
* O=[N+]([O-])[O-].O=[N+]([O-])[O-].O=[N+]([O-])[O-].[Ga+3] [gallium(III) nitrate] | -31.8%
* O=S(=O)([O-])[O-].[Fe+2] [iron(II) sulfate] | -14.6%

For each listed entry, give its normalised percent inhibition.
1. O=[N+]([O-])[O-].O=[N+]([O-])[O-].[Cu+2] [copper(II) nitrate]
2. [Cl][Fe][Cl] [iron(II) chloride]
3. [Cl][Pt-2]([Cl])([Cl])[Cl].[K+].[K+] [potassium tetrachloroplatinate(II)]
4. CC#N.CC#N.CC#N.CC#N.F[B-](F)(F)F.[Cu+] [tetrakis(acetonitrile)copper(I) tetrafluoroborate]
5. O=[N+]([O-])[O-].[Ag+] [silver nitrate]
6. [Cl][Sn][Cl] [tin(II) chloride]
7. O.O.O.O.O.O.O.O=S(=O)([O-])[O-].[Mg+2] [magnesium sulfate]

Reply text:
1: 100%; 2: -33.5%; 3: 6.27%; 4: 101%; 5: 99.8%; 6: -25.8%; 7: -11%

# return normalised percent inhibition for each item in the list
1. [Cl][Fe]([Cl])[Cl] [iron(III) chloride]
2. O=[N+]([O-])[O-].O=[N+]([O-])[O-].[Zn+2] [zinc nitrate]
3. O=[N+]([O-])[O-].O=[N+]([O-])[O-].[Cd+2] [cadmium nitrate]

Reply text:
-34.9%
35.7%
6.48%
